- experimental.system: SPM-1 (Pseudomonas aeruginosa)
- Sequence (Q8G9Q0 entry or part of it): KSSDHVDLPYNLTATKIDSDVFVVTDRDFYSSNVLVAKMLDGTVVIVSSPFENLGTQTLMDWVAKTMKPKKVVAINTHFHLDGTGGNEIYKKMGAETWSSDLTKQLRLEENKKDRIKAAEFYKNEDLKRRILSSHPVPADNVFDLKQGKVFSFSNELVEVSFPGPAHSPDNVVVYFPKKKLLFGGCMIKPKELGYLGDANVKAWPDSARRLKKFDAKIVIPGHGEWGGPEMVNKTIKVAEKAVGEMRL
- measurement.notes: MBL screening assay (IC50), SPM-1
value.kind: IC50
A bare number is not enough; add the unit after it.

> print(dat)
                                   compound  recorded.result
1  O=C(O)C(S)=Cc1c(Cl)ccc(Cl)c1Cl (racemic) [ML302F]          1760 nM

Could you now look at the following compound, please?
# lookup: IC50 of CN1CCN(NC(=O)CN2C(=O)C(=Cc3c(Cl)ccc(Cl)c3Cl)SC2=S)CC1 (mixture of isomers)
1320 nM

* * *

Read-out record for BcII (Bacillus cereus, UniProt P04190): pIC50
Answers are plain numbers, as −log10 of the molar value.

I need pIC50 for every entry listed below, if you could help.
1. CN1CCN(NC(=O)CN2C(=O)C(=Cc3c(Cl)ccc(Cl)c3Cl)SC2=S)CC1 (mixture of isomers)
2. O=C(O)C(S)=Cc1c(Cl)ccc(Cl)c1Cl (racemic) [ML302F]

1. 6.30
2. 7.70
